Molecular target: recombinant human KRAS^G12D protein (Homo sapiens, UniProt P01116, G12D)
Sequence (P01116 1-188 isoform P01116-2 G12D): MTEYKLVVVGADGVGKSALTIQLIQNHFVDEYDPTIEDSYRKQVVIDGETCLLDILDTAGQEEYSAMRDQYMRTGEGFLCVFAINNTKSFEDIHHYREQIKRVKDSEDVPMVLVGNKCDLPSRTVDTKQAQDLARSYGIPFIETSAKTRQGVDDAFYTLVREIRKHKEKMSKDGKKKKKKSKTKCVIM
Assay: Temperature-dependent Fluorescence (TdF) KRAS^G12D protein binding assay
Conditions: 6 μM KRAS^G12D Protein, 10 μM compound, Sypro Orange; Kd calculated from fluorescent shift
Protocol: The TdF assay was conducted in the 96-well-based real-time fluorescence plate reader (ABI 7500 or Roche LightCycler 480). Fluorescent dye Sypro Orange (Sigma) was used to monitor the protein folding-unfolding transition. […] The sample plate was heated from 30° C. to 95° C. with a thermal ramping rate of […], taking a fluorescence reading every 0.4° C. using a CY3 channel matching the excitation and emission wavelengths of Sypro Orange (λ ex 470 nm; λ em 570 nm). […]
pKd: −log10 of the molar value.
Item-by-item account of pKd

See these solved cases before continuing.
COMPOUND | TEST_RESULT
O=C(C(O)O)N1CCN(c2nc(OC[C@@]34CCCN3C[C@H](F)C4)nc3c(F)c(-c4cc(O)cc5cccc(Cl)c45)ncc23)CC1 | < 5.30
Fc1c(-c2cccc3cccc(Cl)c23)ncc2c(OCC34CCCN3CCC4)cc(N3CCNCC3)nc12 | < 5.30
Clc1cc2c(N3CC4CCC(C3)N4)nc(OCC34CCCN3CCC4)nc2nc1-c1cccc2ccccc12 | < 5.30
CC1(O)CN2CCC[C@@]2(COc2nc(N3CC4CCC(C3)N4)c3cnc(-c4cc(O)cc5cccc(Cl)c45)c(F)c3n2)C1 (stereo partly shown) | ≥ 6.30
CCc1c(F)ccc2cc(O)cc(-c3nc(Cl)c4c(N5CC6CCC(C5)N6)nc(OC[C@@]56CCCN5C[C@H](F)C6)nc4c3F)c12 | ≥ 6.30

Can you look up the measured pKd of `Cc1nc(-c2cc(O)cc3ccc(F)c(Cl)c23)c(F)c2nc(OC[C@@]34CCCN3C[C@H](F)C4)nc(N3CC4CCC(C3)N4)c12` for me?
≥ 6.30

Can you look up the measured pKd of `Cc1nc(-c2cc(O)cc3ccccc23)c(F)c2nc(OC[C@@]34CCCN3C[C@H](F)C4)nc(N3CC4CCC(C3)N4)c12` for me?
≥ 6.30
